target: Polyadenylate-binding protein 1 (Homo sapiens)
Sequence (P11940 whole entry): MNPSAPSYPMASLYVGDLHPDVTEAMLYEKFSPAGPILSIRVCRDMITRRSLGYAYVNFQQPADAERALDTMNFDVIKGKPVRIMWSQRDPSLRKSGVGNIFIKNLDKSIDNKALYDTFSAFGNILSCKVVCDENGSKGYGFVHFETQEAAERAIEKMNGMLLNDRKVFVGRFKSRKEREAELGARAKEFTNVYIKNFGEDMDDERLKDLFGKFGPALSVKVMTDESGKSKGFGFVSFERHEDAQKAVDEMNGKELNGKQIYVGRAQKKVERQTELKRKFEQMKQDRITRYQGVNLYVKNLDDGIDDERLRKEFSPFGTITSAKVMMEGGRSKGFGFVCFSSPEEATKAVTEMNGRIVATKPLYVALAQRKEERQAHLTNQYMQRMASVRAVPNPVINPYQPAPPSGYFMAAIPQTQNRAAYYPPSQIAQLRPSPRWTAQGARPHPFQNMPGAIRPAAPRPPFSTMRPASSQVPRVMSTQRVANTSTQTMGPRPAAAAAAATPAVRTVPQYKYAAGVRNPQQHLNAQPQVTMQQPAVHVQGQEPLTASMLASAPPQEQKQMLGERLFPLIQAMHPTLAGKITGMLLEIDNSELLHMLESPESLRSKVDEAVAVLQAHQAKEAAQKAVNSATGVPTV
protocol_notes: PABP1 MLLE–PAM2 binding inhibitor potency, dose response, biochemical, fluorescence polarization, FITC-PAM2 peptide (AID 602259)
Type: functional
details: read-out: IC50_Mean
The source made the active and inactive calls. No stated cut-off is given here; in the data, active = IC50 of 20 µM or less and inactive = more.
Answer each item with its documented IC50.

[Q] Return IC50 measured with Polyadenylate-binding protein 1 (Homo sapiens) given this compound: COc1ccc(Br)cc1C(=O)NC(=S)Nc1cc(-c2nc3ccccc3[nH]2)ccc1C
[A] > 66 µM (inactive)

[Q] Another compound to look at: C=CCN1C(=O)/C(=C\c2ccc(Cl)cc2)N=C1SCC(=O)NC1CCCCC1
[A] > 66 µM (inactive)

[Q] Again, but for CCOC(=O)C1SC2(C(F)(F)F)CC1(O)c1c(C)cc(C)nc1O2 (stereo not given)
[A] > 66 µM (inactive)

[Q] Also CC1CCN(C(=S)c2ccc(O)cc2)CC1 ?
[A] > 66 µM (inactive)

[Q] And for O=C(O)CCC(C(=O)O)N1C(=O)/C(=C2/C(=O)Nc3ccccc32)SC1=S (stereo not given) ?
[A] > 66 µM (inactive)

[Q] Next compound up: O=C(NC(NC(=S)Nc1c(Cl)cc(Cl)cc1Cl)C(Cl)(Cl)Cl)OCc1ccccc1 (stereo not given)
[A] > 66 µM (inactive)

[Q] Subsequent entry: FC(F)(F)c1cccc(NC(S)=NN=C(S)NCc2ccccc2)c1
[A] > 66 µM (inactive)

[Q] Moving on to COc1cccc(NC(=O)CSC(N)=O)c1
[A] > 66 µM (inactive)

[Q] Continue with COc1ccc(CNc2ccc(S(N)(=O)=O)cc2)cc1
[A] > 66 µM (inactive)

[Q] Do the same for CCCCOC(=O)CNc1nnc(SCC(=O)OCC)nc1O please
[A] > 66 µM (inactive)
